Reported values of Population Hoechst High Intensity Objects (%) for individual entries
test system: Fibroblast; experiment: Multiplex assay against human fibroblast; type: toxicity, cell-based; details: 24 h, 10 µM, compound concentration 10 uM, replicate 1
reported.endpoint: Population Hoechst High Intensity Objects (%)

molecule	recorded.result
Cc1nc(-c2cn3c(n2)-c2ccc(-c4cnn(C(C)(C)C(N)=O)c4)cc2OCC3)n(C(C)C)n1	13
Cc1nc(-c2ccc(-c3ccc(C(=O)N4CCc5cc6c(cc54)C4(CCN(C)CC4)CO6)cc3)c(C)c2)no1	17
COc1cccc([C@@H](C)NCCCc2ccccc2Cl)c1.Cl [TECALCET HYDROCHLORIDE]	17
COc1ncc(-c2ccc3nccc(-c4ccnnc4)c3c2)cc1NS(=O)(=O)c1ccc(F)cc1F	20
c1cn2cc(-c3ccc4cn[nH]c4c3)nc(Nc3ccc(N4CCOCC4)cc3)c2n1	44
CN1CCN(c2ccc(OC(F)(F)F)c(Nc3ncc4c(n3)-c3c(c(C(N)=O)nn3CCO)CC4)c2)CC1	18
COc1cc2nccc(Oc3ccc(NC(=O)Nc4cc(C)on4)c(Cl)c3)c2cc1OC.O	19
CN(C)C(=O)N[C@H]1CC[C@H](CCN2CCN(c3cccc(Cl)c3Cl)CC2)CC1.Cl [CARIPRAZINE HYDROCHLORIDE]	18
Cn1cc(-c2[nH]c3cc(NC(=O)[C@H](N)C4CCCCC4)cc4c3c2C=NNC4=O)cn1	23
C[C@@H](NCCCc1cccc(C(F)(F)F)c1)c1cccc2ccccc12.Cl [CINACALCET HYDROCHLORIDE]	11
Cc1cc(C)cc(-c2cnc3cc(Cl)c(-c4cccc(O)c4)cc3c2OCCCN)c1	12
CN1CCC[C@@H]1CCO[C@](C)(c1ccccc1)c1ccc(Cl)cc1.O=C(O)/C=C/C(=O)O [CLEMASTINE FUMARATE]	16
